- PROTOCOL DESCRIPTION: recombinant barcode read abundance after kanamycin selection (control-corrected) (log10(CPM+1)); higher = more efficient recombination; sequences stand for … in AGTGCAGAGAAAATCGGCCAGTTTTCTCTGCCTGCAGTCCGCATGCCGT…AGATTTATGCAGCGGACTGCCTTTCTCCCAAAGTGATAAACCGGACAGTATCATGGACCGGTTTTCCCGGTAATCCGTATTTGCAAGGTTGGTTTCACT; site = the 11-nt target;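 note: IS621 recombinase and bridge RNA in Escherichia coli cells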
I'd appreciate it if you could label each record using recombinant barcode read abundance (log10) and these ranges: 1: < 0.2; 2: ≥ 0.2 and < 0.6; 3: ≥ 0.6

{"CHAIN": "GTCTTAACTTGGGTTCTAACCTGTTGCCG (site GTCTTAACTCG)", "QUALITATIVE LABEL": 2}
{"CHAIN": "ATTGAGACTTGGGTTCTAACCTGTTGCTT (site ATTGAGACTAA)", "QUALITATIVE LABEL": 3}
{"CHAIN": "TCCCAGTCTTGGGTTCTAACCTGTTGCTT (site TCCCAGTCTAA)", "QUALITATIVE LABEL": 3}
{"CHAIN": "TTACGGGCTTGGGTTCTAACCTGTTGCGG (site TTACGCGCTCC)", "QUALITATIVE LABEL": 1}
{"CHAIN": "GACTACCCTTGGGTTCTAACCTGTTGCCT (site GACTACCCTAG)", "QUALITATIVE LABEL": 3}
{"CHAIN": "AGTAAGACTTGGGTTCTAACCTGTTGCTA (site ACTAAGACTCA)", "QUALITATIVE LABEL": 1}
{"CHAIN": "AGAGGGACTTGGGTTCTAACCTGTTGCCT (site AGAGCGACTAG)", "QUALITATIVE LABEL": 1}
{"CHAIN": "CGATCCACTTGGGTTCTAACCTGTTGCCT (site TGATCCACTAG)", "QUALITATIVE LABEL": 1}
{"CHAIN": "TAGTCCGCTTGGGTTCTAACCTGTTGCCG (site TAGCCCTCTCG)", "QUALITATIVE LABEL": 2}
{"CHAIN": "CACGCCTCTTGGGTTCTAACCTGTTGCCT (site CACGCCTCTAG)", "QUALITATIVE LABEL": 3}
{"CHAIN": "GCGCACACTTGGGTTCTAACCTGTTGCCT (site TCGCACACTAG)", "QUALITATIVE LABEL": 2}
{"CHAIN": "AGTTAGCCTTGGGTTCTAACCTGTTGCCT (site AGTCAGCCTAG)", "QUALITATIVE LABEL": 1}
{"CHAIN": "GCAATGACTTGGGTTCTAACCTGTTGCCT (site GCAATGACTAG)", "QUALITATIVE LABEL": 3}
{"CHAIN": "TCTCTGCCTTGGGTTCTAACCTGTTGCCT (site TCTCGGCCTAG)", "QUALITATIVE LABEL": 1}
{"CHAIN": "ATCGGGCCTTGGGTTCTAACCTGTTGCCT (site GTCGGGCCTAG)", "QUALITATIVE LABEL": 2}
{"CHAIN": "TTACGGGCTTGGGTTCTAACCTGTTGCGG (site TTACGGGCTCC)", "QUALITATIVE LABEL": 3}
{"CHAIN": "TAGTTTACTTGGGTTCTAACCTGTTGCAG (site TAGTTTACTCT)", "QUALITATIVE LABEL": 2}
{"CHAIN": "CTTGGTTCTTGGGTTCTAACCTGTTGCTT (site CTTGGTTCTAA)", "QUALITATIVE LABEL": 3}
{"CHAIN": "ATGGATCCTTGGGTTCTAACCTGTTGCGT (site ATGGATCCTAC)", "QUALITATIVE LABEL": 3}
{"CHAIN": "TTACTCTCTTGGGTTCTAACCTGTTGCCT (site TAACTCTCTAG)", "QUALITATIVE LABEL": 1}
{"CHAIN": "CCACTACCTTGGGTTCTAACCTGTTGCCT (site CCACTACCTAG)", "QUALITATIVE LABEL": 2}
{"CHAIN": "AACGCCTCTTGGGTTCTAACCTGTTGCCT (site GACGCCTCTAG)", "QUALITATIVE LABEL": 1}
{"CHAIN": "CGCTCGTCTTGGGTTCTAACCTGTTGCCT (site CGCTTGTCTAG)", "QUALITATIVE LABEL": 1}
{"CHAIN": "GGTCGAGCTTGGGTTCTAACCTGTTGCCT (site GGTCGAGCTAG)", "QUALITATIVE LABEL": 3}
{"CHAIN": "AGAACTCCTTGGGTTCTAACCTGTTGCTG (site TCTTGCTCTAG)", "QUALITATIVE LABEL": 1}
{"CHAIN": "CCTTCCACTTGGGTTCTAACCTGTTGCCT (site GCTTCCACTAG)", "QUALITATIVE LABEL": 1}
{"CHAIN": "CTAATTACTTGGGTTCTAACCTGTTGCCT (site CTACTTACTAG)", "QUALITATIVE LABEL": 1}
{"CHAIN": "ACCAATACTTGGGTTCTAACCTGTTGCCT (site ACCAATCCTAG)", "QUALITATIVE LABEL": 1}
{"CHAIN": "GACGGACCTTGGGTTCTAACCTGTTGCTA (site GACGGACCTTA)", "QUALITATIVE LABEL": 3}
{"CHAIN": "CGGAACCCTTGGGTTCTAACCTGTTGCCG (site CGGAGCCCTTG)", "QUALITATIVE LABEL": 1}
{"CHAIN": "GGTCTAACTTGGGTTCTAACCTGTTGCCT (site GGTCAAACTAG)", "QUALITATIVE LABEL": 1}
{"CHAIN": "AACGTGTCTTGGGTTCTAACCTGTTGCCT (site AACGTGTCTAG)", "QUALITATIVE LABEL": 3}
{"CHAIN": "GCCGGCTCTTGGGTTCTAACCTGTTGCCT (site GACGGCTCTAG)", "QUALITATIVE LABEL": 1}
{"CHAIN": "GACTCGACTTGGGTTCTAACCTGTTGCTT (site GAATCAACTAA)", "QUALITATIVE LABEL": 1}
{"CHAIN": "CATCCTCCTTGGGTTCTAACCTGTTGCTG (site CATCCTACTCC)", "QUALITATIVE LABEL": 2}
{"CHAIN": "GTCCGCTCTTGGGTTCTAACCTGTTGCCT (site ATCCGCTCTAG)", "QUALITATIVE LABEL": 3}
{"CHAIN": "TCCCATACTTGGGTTCTAACCTGTTGCCT (site TCCCATCCTAG)", "QUALITATIVE LABEL": 2}
{"CHAIN": "TAGCCACCTTGGGTTCTAACCTGTTGCCT (site TAGCCACCTAG)", "QUALITATIVE LABEL": 3}
{"CHAIN": "CAGTTAGCTTGGGTTCTAACCTGTTGCCT (site CAGTTAGCTAG)", "QUALITATIVE LABEL": 3}
